Documented FACS-Seq fitted mean (log10) across a set of variants
B1: library; a variant is named by its letters at N, in order (parent)
chain: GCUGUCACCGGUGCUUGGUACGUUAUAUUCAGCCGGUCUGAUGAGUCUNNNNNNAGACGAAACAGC

Variants of: B1
measurement-description: FACS-Seq fitted mean relative fluorescence mCherry/BFP without ligand (log10 relative fluorescence); HEK293T overexpressing SLC46A1; higher = higher reporter protein expression
measurement-parameters: without (6R,S)-folinic acid; ligand present: no

Example results:
Query block: For the variant `GCAUAG` , what FACS-Seq fitted mean (log10) is on record?
Result block: 0.335

Query block: For the variant `AAGCCU` , what FACS-Seq fitted mean (log10) is on record?
Result block: 0.313

Query block: For the variant `AAGUGU` , what FACS-Seq fitted mean (log10) is on record?
Result block: 0.173

Query block: For the variant `UCACCG` , what FACS-Seq fitted mean (log10) is on record?
Result block: 0.426

Query block: For the variant `AGGAAU` , what FACS-Seq fitted mean (log10) is on record?
Result block: 0.338

New cases:
Query block: For the variant `UCUAAA` , what FACS-Seq fitted mean (log10) is on record?
Result block: 0.394

Query block: For the variant `UCGGAA` , what FACS-Seq fitted mean (log10) is on record?
Result block: 0.527

Query block: For the variant `ACGAAA` , what FACS-Seq fitted mean (log10) is on record?
Result block: 0.141

Query block: For the variant `GACAUA` , what FACS-Seq fitted mean (log10) is on record?
Result block: 0.346

Query block: For the variant `AAUGCA` , what FACS-Seq fitted mean (log10) is on record?
Result block: 0.514

Query block: For the variant `CCUAGC` , what FACS-Seq fitted mean (log10) is on record?
Result block: 0.339

Query block: For the variant `GACGGG` , what FACS-Seq fitted mean (log10) is on record?
Result block: 0.31

Query block: For the variant `UAUACC` , what FACS-Seq fitted mean (log10) is on record?
Result block: 0.255

Query block: For the variant `AGCUUG` , what FACS-Seq fitted mean (log10) is on record?
Result block: 0.529

Query block: For the variant `UGAGGA` , what FACS-Seq fitted mean (log10) is on record?
Result block: 0.309

Query block: For the variant `AACUGA` , what FACS-Seq fitted mean (log10) is on record?
Result block: 0.445

Query block: For the variant `GCCAUG` , what FACS-Seq fitted mean (log10) is on record?
Result block: 0.278

Query block: For the variant `AGACCA` , what FACS-Seq fitted mean (log10) is on record?
Result block: 0.1

Query block: For the variant `CCCCUA` , what FACS-Seq fitted mean (log10) is on record?
Result block: 0.532

Query block: For the variant `UUAGGG` , what FACS-Seq fitted mean (log10) is on record?
Result block: 0.0949
